system: MvfR regulon; test: pqsA gene expression (pqsA-GFP reporter); type: cell-based, P. aeruginosa; details: Pseudomonas aeruginosa, read-out: pqsA @10 uM (%), compound at 10 uM
OUTCOME MEASURE: activity at 10 µM (%)

COMPOUND: N#Cc1ccc(NC(=O)CCC(=O)Nc2ccc(F)cc2)cc1
OUTCOME MEASURE: activity at 10 µM
RESULT NUMBER: 112
--
COMPOUND: N#Cc1ccc(NC(=O)CC(=O)Nc2ccc(C#N)cn2)cc1
OUTCOME MEASURE: activity at 10 µM
RESULT NUMBER: 61.3
--
COMPOUND: N#Cc1ccc(NC(=O)C2CCN(c3ccc(F)cc3)C2=O)cc1 (centres unmarked)
OUTCOME MEASURE: activity at 10 µM
RESULT NUMBER: 109
--
COMPOUND: N#Cc1ccc(NC(=O)CC(=O)Nc2ccc(Cl)cc2)cc1
OUTCOME MEASURE: activity at 10 µM
RESULT NUMBER: 1.55
--
COMPOUND: N#Cc1ccc(NC(=O)CC(=O)Nc2ccc([N+](=O)[O-])cc2)cc1
OUTCOME MEASURE: activity at 10 µM
RESULT NUMBER: 1.51

###

tested on: MvfR regulon; assay: LC/MS quantification of HAQs and related molecules in bacterial culture supernatants; assay type: cell-based, P. aeruginosa; conditions: Pseudomonas aeruginosa, PA14, read-out: IC50 PQS (μM)
Decision: IC50 beneath 20 µM gives TRUE; IC50 meeting or exceeding 20 µM gives FALSE.

MOLECULE: N#Cc1ccc(NC(=O)CC(=O)Nc2ccc(Cl)cc2)cc1 [Compound 53]
CAT: TRUE
--
MOLECULE: N#Cc1ccc(NC(=O)CC(=O)Nc2ccc(F)cc2)cc1 [Compound 48]
CAT: FALSE
--
MOLECULE: N#Cc1ccc(NC(=O)CC(=O)Nc2ccc(Br)cc2)cc1 [Compound 54]
CAT: TRUE
--
MOLECULE: N#Cc1ccc(NC(=O)CC(=O)Nc2ccc([N+](=O)[O-])cc2)cc1 [Compound 65]
CAT: FALSE
--
MOLECULE: Cc1cc(F)ccc1NCC(=O)Nc1ccc(C#N)cc1 [Compound 1]
CAT: TRUE

###

tested on: MvfR regulon; assay: pqsA gene expression (pqsA-GFP reporter); format: cell-based, P. aeruginosa; conditions: Pseudomonas aeruginosa, read-out: pqsA @10 uM (%), compound at 10 uM

SMILES TEXT: O=C(CC(=O)Nc1ccc(Oc2ccccc2)cc1)Nc1ccc(Br)cc1
MEASURED TARGET: MvfR regulon
OUTPUT UNIT: %
activity at 10 µM: 64.5
--
SMILES TEXT: N#Cc1ccc(NC(=O)CC(=O)Nc2ccc(C#N)nc2)cn1
MEASURED TARGET: MvfR regulon
OUTPUT UNIT: %
activity at 10 µM: 80
--
SMILES TEXT: CC(=O)c1ccc(NC(=O)CC(=O)Nc2ccc(C#N)cc2)cc1
MEASURED TARGET: MvfR regulon
OUTPUT UNIT: %
activity at 10 µM: 86.5
--
SMILES TEXT: N#Cc1ccc(NC(=O)CC(=O)Nc2ccc(F)cn2)cc1
MEASURED TARGET: MvfR regulon
OUTPUT UNIT: %
activity at 10 µM: 95.1
--
SMILES TEXT: Cc1cccc(NC(=O)CC(=O)Nc2ccc(C#N)cc2)c1
MEASURED TARGET: MvfR regulon
OUTPUT UNIT: %
activity at 10 µM: 84.8

###

target: MvfR (Pseudomonas aeruginosa, UniProt Q9I4X0); construct: made in house; assay: Surface plasmon resonance (SPR) binding to purified MvfR co-inducer binding domain; design: species or system P. aeruginosa; conditions: mean KD value, SPR; mean over the compounds named
Sequence (Q9I4X0 91-332): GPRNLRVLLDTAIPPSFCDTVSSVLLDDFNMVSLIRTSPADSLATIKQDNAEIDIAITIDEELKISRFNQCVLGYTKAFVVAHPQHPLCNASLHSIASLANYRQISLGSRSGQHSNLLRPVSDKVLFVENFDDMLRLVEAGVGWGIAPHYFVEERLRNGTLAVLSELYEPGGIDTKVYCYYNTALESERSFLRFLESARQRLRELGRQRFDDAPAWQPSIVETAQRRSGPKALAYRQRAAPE

MOLECULE: N#Cc1ccc(NC(=O)C(F)C(=O)Nc2ccc(Oc3ccccc3)cc2)cc1 (centres unmarked)
MEASURED TARGET: MvfR (Pseudomonas aeruginosa, UniProt Q9I4X0)
OUTPUT UNIT: nM
Kd: 250

MOLECULE: N#Cc1ccc(NC(=O)CC(=O)Nc2ccc(C#N)c(Cl)c2)cc1
MEASURED TARGET: MvfR (Pseudomonas aeruginosa, UniProt Q9I4X0)
OUTPUT UNIT: nM
Kd: 250

MOLECULE: N#Cc1ccc(NC(=O)CC(=O)Nc2ccc(Oc3ccccc3)cc2)cc1
MEASURED TARGET: MvfR (Pseudomonas aeruginosa, UniProt Q9I4X0)
OUTPUT UNIT: nM
Kd: 250

###

experiment: Pharmacokinetics in mouse plasma and lung after single subcutaneous injection; assay type: in vivo, mice; conditions: mouse lung, 10 mg/kg SC; read-out: lung half-life (converted)

SMILES TEXT: N#Cc1ccc(NC(=O)CC(=O)Nc2ccc(Oc3ccccc3)cc2)cc1
half-life [h]: 1.19

###

Measured activity at 10 µM by item
system: MvfR regulon; experiment: pqsA gene expression (pqsA-GFP reporter); format: cell-based, P. aeruginosa; conditions: Pseudomonas aeruginosa, read-out: pqsA @10 uM (%), compound at 10 uM

SMILES TEXT: N#Cc1ccc(NC(=O)CS(=O)(=O)Nc2ccc(C#N)cc2)cc1
activity at 10 µM, %: 118
//
SMILES TEXT: N#Cc1ccc(NC(=O)CC(=O)Nc2ccc(C(=O)C(F)(F)F)cc2)cc1
activity at 10 µM, %: 107
//
SMILES TEXT: O=C(CC(=O)Nc1ccc(C(F)(F)F)cc1)Nc1ccc(Oc2ccccc2)cc1
activity at 10 µM, %: 37.2
//
SMILES TEXT: N#Cc1ccc(NC(=O)CC(=O)Nc2ccc(Br)cc2)cc1
activity at 10 µM, %: 8.8
//
SMILES TEXT: N#Cc1ccc(NC(=O)CC(=O)Nc2ccc(NC(=O)C(F)(F)F)cc2)cc1
activity at 10 µM, %: 94.2
//
SMILES TEXT: N#Cc1ccc(NC(=O)C(F)C(=O)Nc2ccc(C#N)cc2)cc1
activity at 10 µM, %: 62.8
//
SMILES TEXT: O=C(CC(=O)Nc1ccc([N+](=O)[O-])cc1O)Nc1ccc(Oc2ccccc2)cc1
activity at 10 µM, %: 10
//
SMILES TEXT: N#Cc1ccc(NC(=O)CC(=O)Nc2cccc(C#N)c2)cc1
activity at 10 µM, %: 97.2
//
SMILES TEXT: N#Cc1ccc(NC(=O)CC(=O)Nc2ccc(C#N)nc2)cc1
activity at 10 µM, %: 25.4
//
SMILES TEXT: CN(C(=O)CC(=O)Nc1ccc(C#N)cc1)c1ccc(F)cc1
activity at 10 µM, %: 110
//
SMILES TEXT: N#Cc1ccc(NC(=O)C(N)C(=O)Nc2ccc(C#N)cc2)cc1
activity at 10 µM, %: 58.9

###

experiment: Pharmacokinetics in mouse plasma and lung after single subcutaneous injection; assay type: in vivo, mice; conditions: mouse plasma, 10 mg/kg SC; read-out: plasma half-life (converted)

MOLECULE: N#Cc1ccc(NC(=O)CC(=O)Nc2ccc(Oc3ccccc3)cc2)cc1 [Compound 72]
half-life / h: 1.13

###

target: MvfR (Pseudomonas aeruginosa, UniProt Q9I4X0); construct: made in house; assay: Surface plasmon resonance (SPR) binding to purified MvfR co-inducer binding domain; set-up: species or system P. aeruginosa; settings: SPR

SMILES TEXT: N#Cc1ccc(NC(=O)CC(=O)Nc2ccc(Br)cc2)cc1
Signal Intensity Rmax: 28.21
--
SMILES TEXT: O=C(CC(=O)Nc1ccc([N+](=O)[O-])cc1)Nc1ccc(Oc2ccccc2)cc1
Signal Intensity Rmax: 33.31
--
SMILES TEXT: N#Cc1ccc(NC(=O)CC(=O)Nc2ccc(Oc3ccccc3)cc2)cc1
Signal Intensity Rmax: 34.24
--
SMILES TEXT: N#Cc1ccc(NC(=O)CC(=O)Nc2ccc(I)cc2)cc1
Signal Intensity Rmax: 30.74
--
SMILES TEXT: N#Cc1ccc(NC(=O)CC(=O)Nc2ccc([N+](=O)[O-])cc2)cc1
Signal Intensity Rmax: 29.51
--
SMILES TEXT: N#Cc1ccc(NC(=O)CC(=O)Nc2ccc(Oc3ccccc3)cc2)c(O)c1
Signal Intensity Rmax: 34.69
--
SMILES TEXT: O=C(CC(=O)Nc1ccc([N+](=O)[O-])cc1O)Nc1ccc(Oc2ccccc2)cc1
Signal Intensity Rmax: 36.46
--
SMILES TEXT: Cc1cc(F)ccc1NCC(=O)Nc1ccc(C#N)cc1
Signal Intensity Rmax: 23.41
--
SMILES TEXT: N#Cc1ccc(NC(=O)CC(=O)Nc2ccc(C#N)cc2)cc1
Signal Intensity Rmax: 27.05
--
SMILES TEXT: N#Cc1ccc(NC(=O)CC(=O)Nc2ccc(Cl)cc2)cc1
Signal Intensity Rmax: 26.52

###

test system: MvfR regulon; test: pqsA gene expression (pqsA-GFP reporter); assay type: cell-based, P. aeruginosa; details: Pseudomonas aeruginosa, read-out: pqsA @10 uM (%), compound at 10 uM
# label = MET if activity at 10 µM >= 30% else NOT MET

SMILES TEXT: N#Cc1ccc(NC(=O)CC(=O)Nc2ccc(C#N)c(Cl)c2)cc1
CAT: NOT MET
--
SMILES TEXT: N#Cc1ccc(NC(=O)CC(=O)Nc2ccc(C(F)(F)F)cc2)cc1
CAT: NOT MET
--
SMILES TEXT: CC(C(=O)Nc1ccc(C#N)cc1)C(=O)Nc1ccc(C#N)cc1
CAT: MET
--
SMILES TEXT: N#Cc1ccc(NC(=O)CC(=O)Nc2ccc(I)cc2)cc1
CAT: NOT MET
--
SMILES TEXT: O=C(CC(=O)Nc1ccc(Oc2ccccc2)cc1)Nc1ccc(F)cc1
CAT: NOT MET
